Test system: #B1-1 anti-m6A monoclonal antibody (guinea pig (Hartley))
Assay: SPR
Conditions: m6A at position 6; SPR: Biacor T100, HBS-EP+ buffer, 30 ul/min, biotin-RNA at 20 RU on SA chip, antibody 0-27 nM, 1:1 fit; ELISA: PBS, 3 h, room temperature; UV-crosslink IP: …
measuredProperty: Kd (nM)

sequenceChain	unitLabel	experimentalResult
NNNGGACNNN [m6A-oligo]	nM	2.5
